target_desc: G protein-coupled receptor kinase 6 (Homo sapiens);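 also: values are averaged percent inhibition of GRK6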
condition_label: at 1 µM
experimental_endpoint: inhibition (%)

- compound: "NS(=O)(=O)c1ccc(N/N=C2\\C(=O)Nc3ccc(C(=O)NCCCn4ccnc4)cc32)cc1"
  value_measured: 16.3
- compound: "NS(=O)(=O)c1ccc(Nc2cc(-c3ccc(O)c(F)c3)n[nH]2)cc1"
  value_measured: -0.57
- compound: "CS(=O)(=O)CCNCc1cc(-c2cc3c(Nc4ccc(OCc5cccc(F)c5)c(Cl)c4)ncnc3s2)cs1"
  value_measured: 6.32
- compound: "FC(F)(F)c1cccc(Nc2nccc(-c3cnn4nc(-c5ccccc5)ccc34)n2)c1"
  value_measured: -0.87
- compound: "NCc1ccc(-n2c(-c3nonc3N)nc3cnccc32)cc1"
  value_measured: 7.31
- compound: "COC(=O)Nc1nc2ccc(Sc3ccc(NC(=O)Nc4cc(C(F)(F)F)ccc4F)cc3)cc2[nH]1"
  value_measured: -0.1
- compound: "c1ccc(-c2n[nH]cc2-c2ccnc(-c3ccc(OCCN4CCOCC4)cc3)c2)nc1"
  value_measured: -7.11
- compound: "COc1cc(N2CCN(C(C)C)CC2)ccc1Nc1nc(Nc2ccc(F)cc2C(=O)NC[C@@H](O)CO)c2cc[nH]c2n1"
  value_measured: 13
- compound: "CCc1cccc(CC)c1/C=C/c1cncc(C(=O)NC)c1"
  value_measured: -0.96
- compound: "NC(=O)Cc1ccccc1Oc1nccc(-c2c(-c3ccc(F)cc3)ncn2C2CCNCC2)n1"
  value_measured: -0.72
- compound: "CS(=O)(=O)CCNCc1ccc(-c2ccc3ncnc(Nc4ccc(OCc5ccccc5)c(Br)c4)c3c2)o1"
  value_measured: 2.12
- compound: "Clc1ccc(CNc2nccc(-c3cnn4ncccc34)n2)cc1"
  value_measured: 1.78
- compound: "CN(C)CCCNc1nccc(-c2c(-c3ccc(F)cc3)nn3cc(C(F)(F)F)ccc23)n1"
  value_measured: -2.93
- compound: "Fc1ccc(-c2ncn(C3CCNCC3)c2-c2ccnc(Oc3ccc4c(c3)OCO4)n2)cc1"
  value_measured: 2.27
- compound: "CN(C)c1ccc2c(c1)/C(=C/Nc1ccc(S(N)(=O)=O)cc1)C(=O)N2"
  value_measured: 5.15
- compound: "COc1ccc2cc(-c3c(-c4ccncc4)nc(-c4ccc([S+](C)[O-])cc4C)n3C)ccc2c1 (stereo not given)"
  value_measured: -0.69
- compound: "COc1cc(Nc2ncc3c(C)nc(-c4cccc(Oc5ccccc5)c4)n3n2)cc(OC)c1OC"
  value_measured: -5.44
- compound: "O=C(Nc1n[nH]c2cc(-c3ccccc3)ccc12)C1CC1"
  value_measured: 3.48
- compound: "COc1cc2ncn(-c3cc(OCCc4ccccc4)c(C(N)=O)s3)c2cc1OC"
  value_measured: -0.33
- compound: "CCN(CC)Cc1ccc(Nc2nccc(-c3cnn4ncccc34)n2)cc1"
  value_measured: 1.08

src = ChEMBL document CHEMBL1961873
